Biological target: NLRP3 (Homo sapiens)
Assay: IL-1β Secretion Assay (NLRP3-dependent IL1β secretion in THP1 cells)
Conditions: PMA-differentiated THP-1 cells; compounds incubated 20 h; 2.5 μM Nigericin 3 h; HTRF IL-1β readout; read-out: IC50 IL-1β Inhibition
# maps each entry to its IC50

// IC50 value for Cc1cc2c(-c3ccc(C(F)(F)F)cc3C(F)(F)F)nnc(NC3CCNC3=O)n2c1 (stereo not shown) : 1 to 10 nM

Item: C[C@@H](Nc1nnc(-c2ccc(C(F)(F)F)cc2OC(F)F)c2cccn12)c1cccc(O)c1 (single isomer, unassigned) | IC50: 1 to 10 nM

Value of IC50 reported for the compound `CN1CCC[C@@H](Nc2nnc(-c3ccc(Cl)cc3OC(F)F)c3cncn23)C1` is < 1 nM

What the record says about COc1ccc(-c2nnc(N[C@H]3CCCC[C@]3(C)O)n3cncc23)c(OC(F)(F)F)c1 (single isomer, unassigned) : IC50 is ≥ 300 nM

---

Each entry below lists one item and its recorded IC50 value.
Target: NLRP3 (Homo sapiens)
Assay: IL-1β Secretion Assay (NLRP3-dependent IL1β secretion in THP1 cells)
Settings: PMA-differentiated THP-1 cells; compounds incubated 20 h; 2.5 μM Nigericin 3 h; HTRF IL-1β readout; read-out: IC50 IL-1β Inhibition

Measured IC50 (NLRP3 (Homo sapiens)), entry CCN1CCC[C@@H](Nc2nnc(-c3ccc(OC)cc3OC(F)F)c3c(F)ccn23)C1 [Compound 56] : < 1 nM

Entry FC(F)Oc1ccc(-c2nnc(N[C@@H]3CCCOC3)n3cccc23)c(OC(F)(F)F)c1 [Compound 152] , tested on NLRP3 (Homo sapiens), has a reported IC50 of 1 to 10 nM

Recorded IC50 for CN1CCC[C@@H](Nc2nnc(-c3ccc(Br)cc3OC(F)(F)F)c3cncn23)C1 [Compound 312] on NLRP3 (Homo sapiens) was < 1 nM

Param item: OCCN1CCC[C@@H](Nc2nnc(-c3ccc(C(F)(F)F)cc3OC(F)(F)F)c3cccn23)C1 [Compound 120] ; param system: NLRP3 (Homo sapiens); output IC50: < 1 nM

Consider the record given below.
Case Cc1cc2c(-c3ccc(Cl)cc3OC(F)F)nnc(N[C@@H]3CCCN(C)C3)n2c1 [Compound 13] , NLRP3 (Homo sapiens), IC50 recorded as 1 to 10 nM

---

Molecular target: NLRP3 (Homo sapiens, UniProt Q96P20)
Sequence (Q96P20 whole entry): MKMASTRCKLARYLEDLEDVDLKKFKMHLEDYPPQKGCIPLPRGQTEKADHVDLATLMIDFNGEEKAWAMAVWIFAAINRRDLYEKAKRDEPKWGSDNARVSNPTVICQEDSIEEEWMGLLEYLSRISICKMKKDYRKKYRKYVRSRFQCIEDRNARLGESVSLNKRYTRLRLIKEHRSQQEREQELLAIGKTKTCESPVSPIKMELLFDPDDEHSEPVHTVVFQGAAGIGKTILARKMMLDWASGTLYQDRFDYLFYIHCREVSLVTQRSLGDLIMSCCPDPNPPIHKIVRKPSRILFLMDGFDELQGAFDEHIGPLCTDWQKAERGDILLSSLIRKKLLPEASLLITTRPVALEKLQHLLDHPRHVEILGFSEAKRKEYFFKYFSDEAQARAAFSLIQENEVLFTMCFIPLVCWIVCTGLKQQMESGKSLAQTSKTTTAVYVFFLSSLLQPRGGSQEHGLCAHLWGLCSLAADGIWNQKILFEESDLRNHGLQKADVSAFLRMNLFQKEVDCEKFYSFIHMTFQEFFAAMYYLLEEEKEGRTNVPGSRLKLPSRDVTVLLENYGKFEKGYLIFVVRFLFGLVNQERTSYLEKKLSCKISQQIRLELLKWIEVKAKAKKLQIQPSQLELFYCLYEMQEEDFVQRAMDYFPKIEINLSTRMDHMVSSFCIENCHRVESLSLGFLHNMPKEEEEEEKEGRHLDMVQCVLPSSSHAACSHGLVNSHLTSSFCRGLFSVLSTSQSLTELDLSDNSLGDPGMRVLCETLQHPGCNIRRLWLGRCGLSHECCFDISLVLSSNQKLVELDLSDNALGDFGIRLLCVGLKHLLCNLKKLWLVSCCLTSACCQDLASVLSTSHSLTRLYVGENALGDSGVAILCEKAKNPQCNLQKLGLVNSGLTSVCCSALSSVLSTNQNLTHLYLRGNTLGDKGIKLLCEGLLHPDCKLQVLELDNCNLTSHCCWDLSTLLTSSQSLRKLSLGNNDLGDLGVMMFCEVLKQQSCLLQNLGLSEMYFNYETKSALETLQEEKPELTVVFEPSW
Assay: IL-1β Secretion Assay (NLRP3-dependent IL1β secretion in THP1 cells)
Details: PMA-differentiated THP-1 cells; compounds incubated 20 h; 2.5 μM Nigericin 3 h; HTRF IL-1β readout; read-out: IC50 IL-1β Inhibition
pIC50: −log10 of the molar value.
Recorded pIC50, one value per entry.

Recorded result, `C[C@]1(O)C[C@@H](Nc2nnc(-c3ccc(Cl)cc3C(F)(F)F)c3cncn23)C1` , pIC50: 8.00 to 9.00

Others:
response.value for `CN1CCC[C@@H](Nc2nnc(-c3ccc(C(F)(F)F)cc3CC(F)(F)F)c3cncn23)C1` (field: pIC50) = > 9.00

Entry under test: Cc1ccc(-c2nnc(NC(C)c3cccc(O)c3)n3cncc23)c(CC(F)(F)F)c1 (centres unmarked) . Its pIC50 was 8.00 to 9.00

Measured pIC50 of COc1ccc(-c2nnc(NC3CCNC3=O)n3cncc23)c(OC(F)F)c1 (centres unmarked) : 8.00 to 9.00

Entry `CCN1CCC[C@@H](Nc2nnc(-c3ccc(C(F)(F)F)cc3C(F)(F)F)c3cncn23)C1` ; pIC50 = > 9.00

Entry `CN1CCC[C@@H](Nc2nnc(-c3ccc(OC(F)F)cc3OC(F)(F)F)c3cncn23)C1` ; pIC50 = > 9.00

Please fill in: pIC50 reported for `CCN1CCC[C@@H](Nc2nnc(-c3ccc(Cl)cc3OC(F)F)c3cncn23)C1` = > 9.00

Lookup result for `COc1cc(F)c(-c2nnc(N[C@@H]3CCCN(C)C3)n3cccc23)c(C2CC2)c1` ; measured pIC50: 8.00 to 9.00

---

Molecular target: UniProt:Q96P20
Assay: IL-1β Secretion Assay (NLRP3-dependent IL1β secretion in THP1 cells)
Details: PMA-differentiated THP-1 cells; compounds incubated 20 h; 2.5 μM Nigericin 3 h; HTRF IL-1β readout; read-out: IC50 IL-1β Inhibition
# IC50 listing for each entry below

// below: answered molecules
Sample `COc1ccc(-c2nnc(N[C@H]3C[C@@](C)(O)C3)n3cncc23)c(OC(F)(F)F)c1` ; IC50 observed: 0.001 to 0.01 µM

Reported IC50 for `C[C@]1(O)C[C@@H](Nc2nnc(-c3ccc(C4CC4)cc3OC(F)(F)F)c3cncn23)C1` was 0.001 to 0.01 µM

Note to self: IC50 recorded for COc1ccc(-c2nnc(NC(C)c3cccc(O)c3)n3cncc23)c(OC(F)(F)F)c1 (single isomer, unassigned) was < 0.001 µM

---
Lookup result for `COc1ccc(-c2nnc(N[C@H]3CCCC[C@@H]3O)n3cccc23)c(OC(F)(F)F)c1` ; measured IC50: 0.01 to 0.1 µM

Looking up `Cc1ccc(-c2nnc(N[C@H]3CCCC[C@@H]3O)n3cccc23)c(OC(F)F)c1` , I see its IC50 listed as 0.01 to 0.1 µM

`O[C@@H]1COCC[C@@H]1Nc1nnc(-c2ccc(C(F)(F)F)cc2CC(F)(F)F)c2cccn12` yielded IC50 of 0.001 to 0.01 µM

Entry `OC[C@H]1C[C@@H](Nc2nnc(-c3ccc(C4CC4)cc3CC(F)(F)F)c3cncn23)C1` ; IC50 = 0.001 to 0.01 µM

For record `FC(F)Oc1cc(Cl)ccc1-c1nnc(N[C@@H]2CCCOC2)n2cncc12` the listed IC50 is 0.01 to 0.1 µM

---

pIC50 values, listed per item
Target: NLRP3 (Homo sapiens, UniProt Q96P20)
Assay: IL-1β Secretion Assay (NLRP3-dependent IL1β secretion in THP1 cells)
Settings: PMA-differentiated THP-1 cells; compounds incubated 20 h; 2.5 μM Nigericin 3 h; HTRF IL-1β readout; read-out: IC50 IL-1β Inhibition
Experimental: Monocytic THP-1 cells (ATCC: TIB-202) were maintained in growth media consisting of RPMI 1640 medium (ThermoFisher, Cat #11875-085), 10% FBS (ThermoFisher) and 0.05 mM β-mercaptoethanol (ThermoFisher, Cat #21985-023), according to the provider's instructions. […] Compounds, once produced and prepared according to the present invention, can be assessed in variety of assays to characterize their activities. For example, NLRP3-dependent IL1β secretion was evaluated in THP1 cells. […]
pIC50: −log10 of the molar value.

Just so you know, measured pIC50 for `COc1ccc(-c2nnc(N[C@@H]3CCC[C@H](O)C3)n3cncc23)c(OC(F)(F)F)c1` came out at 8.00 to 9.00

Field pIC50 (entry `CCN1CCC[C@@H](Nc2nnc(-c3ccc(OC)cc3OC(F)(F)F)c3cncn23)C1` ) reads > 9.00

Reported pIC50 for Cc1ccc(-c2nnc(NC3CCNC3=O)n3cncc23)c(CC(F)(F)F)c1 (stereo not shown) was 8.00 to 9.00

Lab note: measured pIC50 of `COc1ccc(-c2nnc(N[C@@H]3CCCN(CCO)C3)n3cncc23)c(OC(F)(F)F)c1` was > 9.00

Reported pIC50 for `CN1CCC[C@@H](Nc2nnc(-c3ccc(C(F)(F)F)cc3CC(F)(F)F)c3cccn23)C1` was > 9.00

pIC50 reading for `CCN1C[C@H](F)C[C@@H](Nc2nnc(-c3ccc(Br)cc3C(F)(F)F)c3cncn23)C1` : 7.00 to 8.00

***
Per the records, this compound ( `COc1ccc(-c2nnc(NCc3nnnn3C)n3cccc23)c(OC(F)(F)F)c1` ) has pIC50 equal to 6.52 to 7.00

Record `Cc1ccc(-c2nnc(N[C@H]3C[C@@](C)(O)C3)n3cncc23)c(OC(F)(F)F)c1` , field pIC50: 7.00 to 8.00

// `Cc1cc2c(-c3ccc(C(F)(F)F)cc3CC(F)(F)F)nnc(N[C@@H]3CCCC[C@H]3O)n2n1` : pIC50 value = 8.00 to 9.00

pIC50 measured on `COc1ccc(-c2nnc(N[C@H]3CCC[C@@H](CO)C3)n3cccc23)c(OC(F)F)c1` = 7.00 to 8.00

For reference, reported pIC50 for `COc1ccc(-c2nnc(N[C@@H]3CCCN(CCO)C3)n3ccc(F)c23)c(OC(F)(F)F)c1` stands at 8.00 to 9.00

# pIC50 of `COc1ccc(-c2nnc(N[C@@H]3CCOC[C@H]3O)n3cccc23)c(OC(F)F)c1` = 7.00 to 8.00

Note to self: pIC50 recorded for `COc1ccc(-c2nnc(NC[C@@H]3CCCN3C)n3cccc23)c(OC(F)(F)F)c1` was 7.00 to 8.00

What the record says about `COc1ccc(-c2nnc(N[C@@H]3CCCN(CCO)C3)n3ccc(F)c23)c(C(F)(F)F)c1` : pIC50 is 8.00 to 9.00

The measured pIC50 associated with `COc1ccc(-c2nnc(N[C@@H]3CCOC[C@H]3O)n3cncc23)c(CC(F)(F)F)c1` reads 8.00 to 9.00

The compound `Cc1cc2c(-c3ccc(Cl)cc3OC(F)F)nnc(N[C@@H]3CCCN(C)C3)n2n1` showed pIC50 equal to > 9.00

Values compiled from patent US20250179078A1.
